measuredTarget: JAK3 (Homo sapiens, UniProt P52333)
Construct: made in house; host or cells: SF9 insect cells (baculovirus)
Sequence (P52333 783-1124): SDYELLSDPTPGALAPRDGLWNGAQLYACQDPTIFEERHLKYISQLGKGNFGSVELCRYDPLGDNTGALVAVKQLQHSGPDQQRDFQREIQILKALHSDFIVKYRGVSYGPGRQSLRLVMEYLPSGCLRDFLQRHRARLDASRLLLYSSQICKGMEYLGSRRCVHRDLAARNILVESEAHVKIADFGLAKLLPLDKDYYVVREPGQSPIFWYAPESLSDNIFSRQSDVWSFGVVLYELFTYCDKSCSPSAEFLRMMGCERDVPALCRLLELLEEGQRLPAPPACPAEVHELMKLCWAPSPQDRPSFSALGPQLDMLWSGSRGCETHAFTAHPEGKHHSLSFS
measurementNotes: JAK3 inhibition (Table 4)
Format: biochemical
experimentalParameters: read-out: JAK3 Ki
assayReadout: pKi
Give bare numbers, as −log10 of the molar value.

molecule: NC1CCC(n2cnc3cnc4[nH]ccc4c32)C1 (racemic)
assayReadout: pKi
measured: 6.82
//
molecule: CCC(O)c1nc2cnc3[nH]ccc3c2n1C1CCCCC1 (stereo not shown)
assayReadout: pKi
measured: 7.45
//
molecule: N#CCCN1CCC(n2c(CC(=O)NC3CCCC3)nc3cnc4[nH]ccc4c32)CC1
assayReadout: pKi
measured: 8.12

Consider the following items and state reported pKi for each.
1. O=C(Cc1nc2cnc3[nH]ccc3c2n1C1CCCOC1)N1CC(F)(F)C1 (racemic)
2. CC(O)c1nc2cnc3[nH]ccc3c2n1CC1CCCO1 (stereo not shown) [Example 699]
3. Cn1ccc(CCc2nc3cnc4[nH]ccc4c3n2C2CCN(CCC#N)CC2)n1
4. FC(F)(F)c1nc2cnc3[nH]ccc3c2n1C1CCNCC1

1. 6.45
2. 6.55
3. 7.04
4. 6.63

---

Task for the reader: assign each of the following compounds its reported Ki.
measuredTarget: JAK2 (Homo sapiens)
Construct: made in house; host or cells: SF9 insect cells (baculovirus)
measurementNotes: JAK2 inhibition (Table 4)
Type: biochemical
experimentalParameters: read-out: JAK2 Ki
Give bare numbers, in nM.

Consider the following items and state reported Ki for each.
1. O=C(O)C1CC1C(O)c1nc2cnc3[nH]ccc3c2n1C1CCCCC1 (racemic)
2. CC1CCCCC1n1c(CNS(C)(=O)=O)nc2cnc3[nH]ccc3c21 (stereo not shown)
3. CC(F)CN1CCC(n2c([C@@H](C)O)nc3cnc4[nH]ccc4c32)CC1 (stereo partly shown)
4. CS(=O)(=O)c1cccc(CN2CCC(n3cnc4cnc5[nH]ccc5c43)CC2)c1
5. CC(=O)NCc1nc2cnc3[nH]ccc3c2n1C1CCN(CC(F)(F)F)CC1
6. N#CCCN1CCC(n2c(CC3CCOCC3)nc3cnc4[nH]ccc4c32)CC1
7. Cc1nc2cnc3[nH]ccc3c2n1C1CC2CCC1C2 (stereo not shown) [Example 121]

[200, 73.6, 64.8, 3.31, 93, 213, 2.78]

---

Task for the reader: assign each of the following compounds its reported pKi.
measuredTarget: JAK3 (Homo sapiens)
Construct: made in house; host or cells: SF9 insect cells (baculovirus)
measurementNotes: JAK3 inhibition (Table 4)
Format: biochemical
experimentalParameters: read-out: JAK3 Ki
Numbers only, as −log10 of the molar value.

Examples with their reported pKi follow.
compound: N#CCCN1CCC(n2c(COCc3ccc(F)c(F)c3)nc3cnc4[nH]ccc4c32)CC1 [Example 835]
assayReadout: pKi
measured: 7.53

compound: COCCC(=O)NCCc1nc2cnc3[nH]ccc3c2n1C1CCN(CCC#N)CC1 [Example 371]
assayReadout: pKi
measured: 7.31

compound: OC[C@]1(O)CC[C@@H](n2nnc3cnc4[nH]ccc4c32)CC1 [Example 716]
assayReadout: pKi
measured: 6.78

compound: CC(O)c1nc2cnc3[nH]ccc3c2n1C1CCN(Cc2cccc(C#N)c2)CC1 (racemic) [Example 156]
assayReadout: pKi
measured: 7.07

compound: CS(=O)(=O)N1CCC(n2c(CC3CCCC3)nc3cnc4[nH]ccc4c32)CC1 [Example 115]
assayReadout: pKi
measured: 6.26

compound: CNC(=O)Cc1nc2cnc3[nH]ccc3c2n1C1CCCOC1 (racemic) [Example 961]
assayReadout: pKi
measured: 6.50

Now consider a different compound.
Suppose we examine the compound Cc1nc2cnc3[nH]ccc3c2n1[C@H]1CC[C@H](NCC(F)(F)F)CC1 [Example 591] ; what pKi value has been reported?
7.89

---

measuredTarget: JAK3 (Homo sapiens, UniProt P52333)
Construct: made in house; host or cells: SF9 insect cells (baculovirus)
measurementNotes: JAK3 inhibition (Table 4)
Assay type: biochemical
experimentalParameters: read-out: JAK3 Ki
assayReadout: pKi
One number for each entry, as −log10 of the molar value.

compound: CC1(COC(=O)N[C@H]2CC[C@H](n3cnc4cnc5[nH]ccc5c43)CC2)CC1
measured: 7.11

Consider the following items and state reported pKi for each.
1. C[C@@H](O)c1nc2cnc3[nH]ccc3c2n1C1CCC(n2ccnn2)CC1 (stereo partly drawn)
2. CC(=O)N1CCC[C@@H](n2cnc3cnc4[nH]ccc4c32)C1
3. C[C@@H](O)c1nc2cnc3[nH]ccc3c2n1C1CCCC1

[6.89, 6.86, 6.92]

Consider the following items and state reported pKi for each.
1. C[C@@H](O)c1nc2cnc3[nH]ccc3c2n1C1CCN(Cc2cncn2C)CC1
2. N#CCCN1CCC(n2c(CCn3cccn3)nc3cnc4[nH]ccc4c32)CC1

1. 7.07
2. 6.81

---

measuredTarget: JAK2 (Homo sapiens, UniProt O60674)
Construct: made in house; host or cells: SF9 insect cells (baculovirus)
Sequence (O60674 812-1132): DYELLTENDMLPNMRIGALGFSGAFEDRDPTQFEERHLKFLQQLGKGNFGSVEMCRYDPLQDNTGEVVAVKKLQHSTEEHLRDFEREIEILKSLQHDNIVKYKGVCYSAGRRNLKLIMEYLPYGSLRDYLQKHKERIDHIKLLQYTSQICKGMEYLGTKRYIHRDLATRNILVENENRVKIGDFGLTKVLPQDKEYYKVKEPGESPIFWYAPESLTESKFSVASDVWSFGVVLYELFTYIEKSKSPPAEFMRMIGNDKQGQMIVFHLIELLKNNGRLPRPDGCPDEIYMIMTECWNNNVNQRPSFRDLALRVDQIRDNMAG
measurementNotes: JAK2 inhibition (Table 4)
Assay type: biochemical
experimentalParameters: read-out: JAK2 Ki
assayReadout: log10 of Ki (log10 of the value in nM)
Friendly reminder: values = log10 of Ki, unit nM.

Examples with their reported log10 of Ki follow.
compound: CN1CCOCC1C(=O)N1CCC(n2cnc3cnc4[nH]ccc4c32)CC1 (single isomer, unassigned) [Example 197a]
log10 of Ki: 2.34
//
compound: C[C@@H](O)c1nc2cnc3[nH]ccc3c2n1[C@H]1CC[C@@H](n2cncn2)CC1
log10 of Ki: 1.39
//
compound: CC(C)N[C@H]1CC[C@H](n2cnc3cnc4[nH]ccc4c32)CC1
log10 of Ki: 1.64
//
compound: CCc1nc2cnc3[nH]ccc3c2n1C1CCN(C(C)CC#N)CC1 (stereo not drawn)
log10 of Ki: 0.85

Consider the following items and state reported log10 of Ki for each.
1. CNc1nc2cnc3[nH]ccc3c2n1C1CCN(CCC#N)CC1
2. CCN1CCC(n2c(CO)nc3cnc4[nH]ccc4c32)C(F)(F)C1 (racemic)

1: 0.82; 2: 1.03

Source: patent US8461328B2
